Entry source: the supplement of paper PMC10567573

B1: SPATS1 (parent)
chain: YPEQSKGFHKAGSMLPPVNFSIVP

Variants of: B1
Assay: protein stability index of a GFP-peptide fusion (GPS, HEK-293T) (PSI 1-6); higher = more stable;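 also: lentivirally expressed fusions sorted by FACS into six bins by GFP to DsRed ratio, PSI derived from sequencing read proportions per bin multiplied by bin number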
Conditions: c terminus: a fixed tail appended
value type: protein stability index

1. YPEQSKGFHKAGSMLPPVNFSIQP :: 2.26
2. YPEQSKGFHKAGIMLPPVNFSIVP :: 1.74
3. YPEQSYGFHKAGSMLPPVNFSIVP :: 1.93
4. YPEQGKGFHKAGSMLPPVNFSIVP :: 2.52
5. DPEQSKGFHKAGSMLPPVNFSIVP :: 3.82
6. YPEQSKGFHKAGSMLMPVNFSIVP :: 1.52
7. YPEQSKGFTKAGSMLPPVNFSIVP :: 2.16
8. YPEQSKGFNKAGSMLPPVNFSIVP :: 2.75
9. YPEQSKGFHKAGSMCPPVNFSIVP :: 2.05
10. YPEQSKGFDKAGSMLPPVNFSIVP :: 2.94
11. YPEQSKGFHKAGSMLPPVNFSHVP :: 1.75
12. YPEQSKGFHKAGSMYPPVNFSIVP :: 2.42
13. YPEQSKGFHKAGWMLPPVNFSIVP :: 2.1
14. YPEQSKGFHKAGKMLPPVNFSIVP :: 1.95
15. YPEQSKGFHKAGSMLPPVSFSIVP :: 2.43
16. YPEQSPGFHKAGSMLPPVNFSIVP :: 2.17
17. YPEQSKGFHKAGSCLPPVNFSIVP :: 2.25
18. YPKQSKGFHKAGSMLPPVNFSIVP :: 1.8
19. YPEQSKGFKKAGSMLPPVNFSIVP :: 2.56
20. YPSQSKGFHKAGSMLPPVNFSIVP :: 2
21. YPEQSKGFHKAGSMLPPVNVSIVP :: 2.88
22. YPEQSKGFHKAGSMNPPVNFSIVP :: 2.02
23. YPEQSKGFHKAGSMLPPFNFSIVP :: 1.73
24. YPEQSKGFHKFGSMLPPVNFSIVP :: 2.1
25. YPEQSKGFHKAGSMLPPVNFSNVP :: 2.31
26. YPEQSKGFHKAGSMLPPVNPSIVP :: 2.66
27. YPEQSKGFHKALSMLPPVNFSIVP :: 2.24
28. YPEQSKGFHKAGSMLPVVNFSIVP :: 2.22
29. YPEQSMGFHKAGSMLPPVNFSIVP :: 2.26
30. YPEQSKGFHKAGSMLPPVEFSIVP :: 1.91
31. YPEQSKGFHKAGSMHPPVNFSIVP :: 2.27
32. CPEQSKGFHKAGSMLPPVNFSIVP :: 2.95
33. YPEQSKGFHKAGSMLPPVHFSIVP :: 1.91
34. YPEQSKGIHKAGSMLPPVNFSIVP :: 3.44
35. YPEQSKGFHKAGSMLPPVIFSIVP :: 2.41
36. YPEQSKGFHKAGSMLPPVNFSDVP :: 2.47
37. YPENSKGFHKAGSMLPPVNFSIVP :: 1.89
38. YPEASKGFHKAGSMLPPVNFSIVP :: 3.18
39. YPEQSKGFHKAGSMLPPVNFPIVP :: 1.96
40. YPEQSKGFHKAGSMLPPVNFSIVL :: 3.85
41. YPECSKGFHKAGSMLPPVNFSIVP :: 1.8
42. YPEQSKGFHKAGSMLPPVNFAIVP :: 1.8
43. YPEQSKGFHKAGSWLPPVNFSIVP :: 1.91
44. YPEQSKGFHKLGSMLPPVNFSIVP :: 1.55
45. YPEQSKGFHKAGSMLHPVNFSIVP :: 1.44
46. YPEQSKGFHKAGSMLPDVNFSIVP :: 1.94
47. YPEQSKGFHKAGSMLPPVNFSIKP :: 2.1
48. YPEQSKGFHKAGSMLPPTNFSIVP :: 2
49. YPEQSKGFHKAGSMLYPVNFSIVP :: 1.78
50. YPEQSKGAHKAGSMLPPVNFSIVP :: 3.6
51. YPEQSKGFHKAGSMLPPLNFSIVP :: 1.28
52. YPEQSKGFHKAGSMLQPVNFSIVP :: 2.02
53. YPEQSKGFHKAGSMLPPVNFSIVN :: 1.84
54. YPEQSKGFHKAGSMLPPVNFSIGP :: 1.98
55. YPLQSKGFHKAGSMLPPVNFSIVP :: 1.9
56. YPEQSKGFHKAGSMRPPVNFSIVP :: 1.9
57. YPEPSKGFHKAGSMLPPVNFSIVP :: 2.16
58. YPEQSKGFHKAGSMLPHVNFSIVP :: 2.75
59. YPEQSKMFHKAGSMLPPVNFSIVP :: 2.2
60. YPEQAKGFHKAGSMLPPVNFSIVP :: 2.17
61. YPEQSKGFHKAGPMLPPVNFSIVP :: 1.88
62. YPEQSKGFHKCGSMLPPVNFSIVP :: 2.03
63. YPEQTKGFHKAGSMLPPVNFSIVP :: 2.23
64. YPEVSKGFHKAGSMLPPVNFSIVP :: 2.43
65. YPEQSKGFHKAGSMLSPVNFSIVP :: 1.43
66. YPEQSKGFHKAGSMLPPVNFSTVP :: 2.53
67. YPEQSKGFHKAGSMLPPVNFSINP :: 2.35
68. YPEQSKGFHKYGSMLPPVNFSIVP :: 1.74
69. YPEQQKGFHKAGSMLPPVNFSIVP :: 2.55
70. YPTQSKGFHKAGSMLPPVNFSIVP :: 2.02
71. YPEQSKGFHKAGSMLPPWNFSIVP :: 1.76
72. YPEQCKGFHKAGSMLPPVNFSIVP :: 1.96
73. YPEQSKGFHKAGSMLPPMNFSIVP :: 2.02
74. YPEQSKHFHKAGSMLPPVNFSIVP :: 1.43
75. YPEQVKGFHKAGSMLPPVNFSIVP :: 2.45
76. YPEQSKGFHGAGSMLPPVNFSIVP :: 1.52
77. YPEQSKGFHKAGSMLPPVNFSIVI :: 3.47
78. YPEQSKGFHKAGSMLPPVNCSIVP :: 2.13
79. YPEQSKGFHKAGSMLPPINFSIVP :: 1.84
80. YPEQSVGFHKAGSMLPPVNFSIVP :: 1.67
81. YPEQSKGFHKAGSMLPPVNFNIVP :: 2.4
82. YPEQSKGFHKAGSMLPSVNFSIVP :: 1.94
83. YPEQSKGFHKAGSMLPPVDFSIVP :: 1.97
84. YPEQSKGFHKAGSMLPPVNASIVP :: 2.26
85. YPEQSKGFHKAGSMLPPNNFSIVP :: 2.4
86. YLEQSKGFHKAGSMLPPVNFSIVP :: 2.29
87. YPEQSKGFHEAGSMLPPVNFSIVP :: 2.58
88. YPEQSKGFHKAGSMWPPVNFSIVP :: 1.47
89. YPEQSKGDHKAGSMLPPVNFSIVP :: 4.19
90. YPEQSKGFHKAGSMLPPVNFSIHP :: 1.43
91. YPEQSKGFHKAGSMLLPVNFSIVP :: 1.76
